molecular target: EED (1-441)-His protein (Homo sapiens, UniProt O75530); construct: 30 nM EED (1-441)-His protein; test: EED-H3K27Me3 peptide competition binding assay by AlphaScreen; conditions: EED-H3K27Me3 peptide competition, AlphaScreen; read-out: (a) IC50 EED Alphascreen binding Qualified
Sequence (O75530 whole entry): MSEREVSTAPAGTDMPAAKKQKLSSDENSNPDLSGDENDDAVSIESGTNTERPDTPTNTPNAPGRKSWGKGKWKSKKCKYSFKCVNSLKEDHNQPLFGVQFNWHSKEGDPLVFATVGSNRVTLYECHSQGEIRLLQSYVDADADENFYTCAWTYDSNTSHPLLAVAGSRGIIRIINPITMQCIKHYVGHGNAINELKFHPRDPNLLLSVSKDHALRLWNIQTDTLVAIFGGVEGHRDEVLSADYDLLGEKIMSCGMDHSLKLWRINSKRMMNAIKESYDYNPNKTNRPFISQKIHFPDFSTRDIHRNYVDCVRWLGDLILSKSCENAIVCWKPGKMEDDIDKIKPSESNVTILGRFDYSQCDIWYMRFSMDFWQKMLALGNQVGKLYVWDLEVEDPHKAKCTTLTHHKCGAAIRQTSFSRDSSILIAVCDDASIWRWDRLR
Measured IC50, listed per entry.
attributeMeasured: IC50 (nM)

* COc1cccc(F)c1CNc1ccc(-c2ccc(O)nc2C)c2nncn12 | 15.8
* COc1cccc(F)c1CNc1ccc(-c2ccc(C(=O)N(C)C)nc2)c2nncn12 | 16.5
* COc1cc(F)cc(F)c1CNc1c(F)cc(-c2cnc(C)nc2C)c2nncn12 | 2660
* COc1cccc(F)c1CNc1ccc(-c2cn(CCO)nc2C(F)(F)F)c2nncn12 | 31.2
* COC(=O)N1CCC(n2cc(-c3ccc(NCc4c(F)cccc4OC)n4cnnc34)cn2)CC1 | 68.9
* COc1cccc(F)c1CNc1ccc(-c2ccc(C)nc2C(F)F)c2nncn12 | 7.7
* COc1cccc(F)c1CNc1ccc(-c2cnc(OC(F)F)cc2C)c2nncn12 | 26.6
* COc1cc(F)cc(F)c1CNc1ccc(-c2cnc(S(C)(=O)=O)cc2C)c2nncn12 | 52.1
